- Test system: complement activation in factor B-depleted human sera
- Type: biochemical
- Procedure: Peptides were diluted to 0.77 mM in factor B-depleted human sera (Complement Technologies, Inc.) and incubated for 1 hour at 37° C. […] The procedure was stopped by the addition of 4.0 ml of GVBS^−−, centrifuged for 5 minutes at 1,620×g, and the absorbance of the supernatants was read at 412 nm in a spectrophotometer. […] The final concentration of peptide in factor B-depleted serum was 0.77 mM. Each peptide was evaluated in triplicate and the mean values are reported. […]
Square brackets hold non-standard residues; d marks the D form. Peptide text beside a SMILES is read from it. Sar = CNCC(=O)O
Could you label it class 1 if measured Hemolysis (%) is 10% or higher, and class 0 otherwise?

Exercise: Could you please find out whether CC[C@H](C)[C@H](N)C(=O)N[C@@H](C)C(=O)N[C@@H](CC(C)C)C(=O)N[C@H](C(=O)N[C@@H](CC(C)C)C(=O)N(C)CC(=O)N(C)CC(=O)N[C@H](C(=O)N[C@@H](CS)C(=O)N[C@@H](CS)C(=O)N[C@@H](CCC(N)=O)C(=O)N[C@@H](CCC(=O)O)C(=O)N[C@@H](CCCNC(=N)N)C(=O)N[C@@H](C)C(=O)N[C@@H](C)C(=O)O)[C@@H](C)CC)[C@@H](C)CC [Peptide E6SarP7Sar] (H-IALIL[Sar][Sar]ICCQERAA-OH; N-terminus and C-terminus assumed) has Hemolysis (%) that meets 10% or exceeds it?
Solution: class 0

Exercise: Could you please find out whether CC[C@H](C)[C@H](N)C(=O)N[C@@H](C)C(=O)N[C@@H](CC(C)C)C(=O)N[C@H](C(=O)N[C@@H](CC(C)C)C(=O)N(C)CC(=O)N1CCC[C@H]1C(=O)N[C@H](C(=O)N[C@@H](CS)C(=O)N[C@@H](CS)C(=O)N[C@@H](CCC(N)=O)C(=O)N[C@@H](CCC(=O)O)C(=O)N[C@@H](CCCNC(=N)N)C(=O)N[C@@H](C)C(=O)N[C@@H](C)C(=O)NCCOCCOCCOCCOCCOCCOCCOCCOCCOCCOCCOCCOCCOCCOCCOCCOCCOCCOCCOCCOCCOCCOCCOCCOCCC(=O)O)[C@@H](C)CC)[C@@H](C)CC [PA-E6Sar-dPEG24] has Hemolysis (%) that meets 10% or exceeds it?
Solution: class 1

Exercise: Could you please find out whether CC[C@H](C)[C@H](N)C(=O)N[C@@H](C)C(=O)N[C@@H](CC(C)C)C(=O)N[C@H](C(=O)N[C@@H](CC(C)C)C(=O)N[C@@H](CCC(=O)O)C(=O)N(C)CC(=O)N[C@H](C(=O)N[C@@H](CS)C(=O)N[C@@H](CS)C(=O)N[C@@H](CCC(N)=O)C(=O)N[C@@H](CCC(=O)O)C(=O)N[C@@H](CCCNC(=N)N)C(=O)N[C@@H](C)C(=O)N[C@@H](C)C(=O)O)[C@@H](C)CC)[C@@H](C)CC [PA-P7Sar] (H-IALILE[Sar]ICCQERAA-OH; N-terminus and C-terminus assumed) has Hemolysis (%) that meets 10% or exceeds it?
Solution: class 0

Exercise: Could you please find out whether CC[C@H](C)[C@H](N)C(=O)N[C@@H](C)C(=O)N[C@@H](CC(C)C)C(=O)N[C@H](C(=O)N[C@@H](CC(C)C)C(=O)N[C@@H](CCC(=O)O)C(=O)N1CCC[C@H]1C(=O)N[C@H](C(=O)N[C@@H](CS)C(=O)N[C@@H](CS)C(=O)N[C@@H](CCC(N)=O)C(=O)N[C@@H](CCC(=O)O)C(=O)N[C@@H](CCCNC(=N)N)C(=O)N(C)CC(=O)N[C@@H](C)C(=O)NCCOCCOCCOCCOCCOCCOCCOCCOCCOCCOCCOCCOCCOCCOCCOCCOCCOCCOCCOCCOCCOCCOCCOCCOCCC(=O)O)[C@@H](C)CC)[C@@H](C)CC [PA-A14Sar-dPEG24] has Hemolysis (%) that meets 10% or exceeds it?
Solution: class 0

Exercise: Could you please find out whether CC[C@H](C)[C@H](N)C(=O)N[C@@H](C)C(=O)N[C@@H](CC(C)C)C(=O)N[C@H](C(=O)N[C@@H](CC(C)C)C(=O)N[C@@H](C)C(=O)N(C)CC(=O)N[C@H](C(=O)N[C@@H](CS)C(=O)N[C@@H](CS)C(=O)N[C@@H](CCC(N)=O)C(=O)N[C@@H](C)C(=O)N[C@@H](CCCNC(=N)N)C(=O)N[C@@H](C)C(=O)N[C@@H](C)C(=O)O)[C@@H](C)CC)[C@@H](C)CC [Peptide E6AE12AP7Sar] (H-IALILA[Sar]ICCQARAA-OH; N-terminus and C-terminus assumed) has Hemolysis (%) that meets 10% or exceeds it?
Solution: class 0

Exercise: Could you please find out whether CC[C@H](C)[C@H](N)C(=O)N[C@@H](C)C(=O)N(C)CC(=O)N[C@H](C(=O)N[C@@H](CC(C)C)C(=O)N[C@@H](CCC(=O)O)C(=O)N1CCC[C@H]1C(=O)N[C@H](C(=O)N[C@@H](CS)C(=O)N[C@@H](CS)C(=O)N[C@@H](CCC(N)=O)C(=O)N[C@@H](CCC(=O)O)C(=O)N[C@@H](CCCNC(=N)N)C(=O)N[C@@H](C)C(=O)N[C@@H](C)C(=O)O)[C@@H](C)CC)[C@@H](C)CC [PA-L3Sar] (H-IA[Sar]ILEPICCQERAA-OH; N-terminus and C-terminus assumed) has Hemolysis (%) that meets 10% or exceeds it?
Solution: class 1

Exercise: Could you please find out whether CC[C@H](C)[C@H](N)C(=O)N[C@@H](C)C(=O)N[C@@H](CC(C)C)C(=O)N[C@H](C(=O)N[C@@H](CC(C)C)C(=O)N[C@@H](CCC(=O)O)C(=O)N1CCC[C@H]1C(=O)N[C@H](C(=O)N(C)CC(=O)N[C@@H](CCC(N)=O)C(=O)N[C@@H](CCC(=O)O)C(=O)N[C@@H](CCCNC(=N)N)C(=O)N[C@@H](C)C(=O)N[C@@H](C)C(=O)O)[C@@H](C)CC)[C@@H](C)CC [PA-C9SarD10] (H-IALILEPI[Sar]QERAA-OH) has Hemolysis (%) that meets 10% or exceeds it?
Solution: class 1

Exercise: Could you please find out whether CC[C@H](C)[C@H](N)C(=O)N[C@@H](C)C(=O)N[C@@H](CC(C)C)C(=O)N[C@H](C(=O)N[C@@H](CC(C)C)C(=O)N[C@@H](CCC(=O)O)C(=O)N1CCC[C@H]1C(=O)N[C@H](C(=O)N[C@@H](CS)C(=O)N[C@@H](CS)C(=O)N[C@@H](CCC(N)=O)C(=O)N[C@@H](CCC(=O)O)C(=O)N[C@@H](CCCNC(=N)N)C(=O)N(C)CC(=O)N[C@@H](C)C(=O)O)[C@@H](C)CC)[C@@H](C)CC [PA-A14Sar] has Hemolysis (%) that meets 10% or exceeds it?
Solution: class 0

###

- assay-summary: Solubility in water
- Format: physicochemical
- assay-setup: Table 7, PEGylated and sarcosine/alanine substitution peptides
Square brackets hold non-standard residues; d marks the D form. Peptide text beside a SMILES is read from it. Sar = CNCC(=O)O
readout-type: Solubility in water

compound | recorded-measurement
CC[C@H](C)[C@H](N)C(=O)N[C@@H](C)C(=O)N[C@@H](CC(C)C)C(=O)N[C@H](C(=O)N[C@@H](CC(C)C)C(=O)N[C@@H](CCC(=O)O)C(=O)N1CCC[C@H]1C(=O)N[C@H](C(=O)N(C)CC(=O)N[C@@H](CS)C(=O)N[C@@H](CCC(N)=O)C(=O)N[C@@H](CCC(=O)O)C(=O)N(C)CC(=O)N[C@@H](C)C(=O)N[C@@H](C)C(=O)O)[C@@H](C)CC)[C@@H](C)CC [Peptide R13SarC9Sar] (H-IALILEPI[Sar]CQE[Sar]AA-OH) | No
CC[C@H](C)[C@H](N)C(=O)N[C@@H](C)C(=O)N[C@@H](CC(C)C)C(=O)N[C@H](C(=O)N[C@@H](CC(C)C)C(=O)N[C@@H](CCC(=O)O)C(=O)N1CCC[C@H]1C(=O)N[C@H](C(=O)N[C@@H](CS)C(=O)N[C@@H](CS)C(=O)N(C)CC(=O)N[C@@H](CCC(=O)O)C(=O)N[C@@H](CCCNC(=N)N)C(=O)N[C@@H](C)C(=O)N[C@@H](C)C(=O)NCCOCCOCCOCCOCCOCCOCCOCCOCCOCCOCCOCCOCCOCCOCCOCCOCCOCCOCCOCCOCCOCCOCCOCCOCCC(=O)O)[C@@H](C)CC)[C@@H](C)CC [PA-Q11Sar-dPEG24] | Yes

###

- Tested on: complement activation in factor B-depleted human sera
- Format: biochemical
Square brackets hold non-standard residues; d marks the D form. Peptide text beside a SMILES is read from it. Sar = CNCC(=O)O
readout-type: Hemolysis (%)
Quick note: give the figure in %, leave out the unit.

Exercise: Give Hemolysis (%) for the following compound: CC[C@H](C)[C@H](N)C(=O)N[C@@H](C)C(=O)N[C@@H](CC(C)C)C(=O)N[C@H](C(=O)N(C)CC(=O)N[C@@H](CCC(=O)O)C(=O)N1CCC[C@H]1C(=O)N[C@H](C(=O)N[C@@H](CS)C(=O)N[C@@H](CS)C(=O)N[C@@H](CCC(N)=O)C(=O)N[C@@H](CCC(=O)O)C(=O)N[C@@H](CCCNC(=N)N)C(=O)N[C@@H](C)C(=O)N[C@@H](C)C(=O)O)[C@@H](C)CC)[C@@H](C)CC [PA-L5Sar] (H-IALI[Sar]EPICCQERAA-OH; N-terminus and C-terminus assumed)
Solution: 85.13

Exercise: Give Hemolysis (%) for the following compound: CC[C@H](C)[C@H](N)C(=O)N[C@@H](C)C(=O)N[C@@H](CC(C)C)C(=O)N[C@H](C(=O)N[C@@H](CC(C)C)C(=O)N[C@@H](CCC(=O)O)C(=O)N1CCC[C@H]1C(=O)N[C@H](C(=O)N[C@@H](CS)C(=O)N[C@@H](CS)C(=O)N[C@@H](CCC(N)=O)C(=O)N[C@@H](CCC(=O)O)C(=O)N(C)CC(=O)N[C@@H](C)C(=O)N[C@@H](C)C(=O)NCCOCCOCCOCCOCCOCCOCCOCCOCCOCCOCCOCCOCCOCCOCCOCCOCCOCCOCCOCCOCCOCCOCCOCCOCCC(=O)O)[C@@H](C)CC)[C@@H](C)CC [PA-R13Sar-dPEG24]
Solution: 4.26
